The origin of these recorded values is the supplement of paper PMC10567573.

B1: TRIM35 (parent)
chain: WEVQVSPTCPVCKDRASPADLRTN

Variants of: B1
PROCEDURE DETAILS: protein stability index of a GFP-peptide fusion (GPS, HEK-293T) (PSI 1-6); higher = more stable;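 also: lentivirally expressed fusions sorted by FACS into six bins by GFP to DsRed ratio, PSI derived from sequencing read proportions per bin multiplied by bin number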
CONDITION: c terminus: a fixed tail appended
Dear colleague, classification is by protein stability index, with ranges listed here: low group = under 2, middle group = from 2 up to 3, high group = 3 and over

Please indicate the class for WKVQVSPTCPVCKDRASPADLRTN [E2K] based on its protein stability index.
middle group

Please indicate the class for WEVQVSPTCPVCKDRASPAKLRTN [D20K] based on its protein stability index.
middle group

Please indicate the class for WEVQVSPTCPVCKDRISPADLRTN [A16I] based on its protein stability index.
low group

Please indicate the class for HEVQVSPTCPVCKDRASPADLRTN [W1H] based on its protein stability index.
high group

Please indicate the class for WEVQVSPTCPVCKDRACPADLRTN [S17C] based on its protein stability index.
low group

Please indicate the class for WCVQVSPTCPVCKDRASPADLRTN [E2C] based on its protein stability index.
middle group

Please indicate the class for WEVQVSPTCPVCKDRASPYDLRTN [A19Y] based on its protein stability index.
low group

Please indicate the class for TEVQVSPTCPVCKDRASPADLRTN [W1T] based on its protein stability index.
middle group

Please indicate the class for WEVQVSPTCPFCKDRASPADLRTN [V11F] based on its protein stability index.
low group

Please indicate the class for NEVQVSPTCPVCKDRASPADLRTN [W1N] based on its protein stability index.
high group

Please indicate the class for WEVQVSPTCPVCKDRTSPADLRTN [A16T] based on its protein stability index.
middle group

Please indicate the class for WEVQVSPTCPVCKDRASPADLRTI [N24I] based on its protein stability index.
low group
